Experimental context: cell viability/%
Where a SMILES comes first, the peptide text is derived from it. [ ]: non-standard residue; d: D form. The star is where a group is joined. NHCH2CH2OH = OCCN*; For = O=C*
Measured metric: viability (%)
One number for each entry, in %.

Need viability of CC(C)C[C@@H](NC(=O)[C@H](C)NC(=O)CNC(=O)[C@@H](NC=O)C(C)C)C(=O)N[C@@H](C)C(=O)N[C@@H](C(=O)N[C@H](C(=O)N[C@@H](C(=O)N[C@@H](Cc1c[nH]c2ccccc12)C(=O)N[C@@H](C(=O)N[C@@H](Cc1c[nH]c2ccccc12)C(=O)N[C@H](CC(C)C)C(=O)N[C@@H](Cc1c[nH]c2ccccc12)C(=O)N[C@@H](C(=O)N[C@@H](Cc1c[nH]c2ccccc12)C(=O)NCCO)C(C)C)C(C)C)[C@H](C)O)C(C)C)C(C)C [compound 2154] (For-VGA[dL]A[dV]V[dT]W[dV]W[dL]W[dV]W-NHCH2CH2OH) , thanks.
100
